Reported IC50 values for the following compounds.
- assayTarget: Cruzipain (Trypanosoma cruzi, UniProt P25779)
- Sequence (P25779 whole entry): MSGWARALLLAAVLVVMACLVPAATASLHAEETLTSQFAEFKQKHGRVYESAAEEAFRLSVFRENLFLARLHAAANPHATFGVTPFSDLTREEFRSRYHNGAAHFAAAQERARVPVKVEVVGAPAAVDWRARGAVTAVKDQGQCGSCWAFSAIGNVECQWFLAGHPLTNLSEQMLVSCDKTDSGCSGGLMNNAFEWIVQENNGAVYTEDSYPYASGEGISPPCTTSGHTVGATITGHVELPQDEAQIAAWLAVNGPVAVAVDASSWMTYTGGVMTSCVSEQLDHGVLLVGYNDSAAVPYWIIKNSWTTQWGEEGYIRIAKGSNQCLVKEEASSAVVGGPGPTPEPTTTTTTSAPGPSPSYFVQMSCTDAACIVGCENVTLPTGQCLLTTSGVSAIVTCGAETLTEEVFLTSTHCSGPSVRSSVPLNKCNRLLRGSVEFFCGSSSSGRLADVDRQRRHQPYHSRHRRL
- methodSummary: Inhibitory activity against Trypanosoma cruzi cathepsin L-like protease (cruzain) was determined using purified recombinant protein

| smilesNotation | IC50 |
| --- | --- |
| C/N=C(\S)N1CCC(c2cccc(Br)c2)=N1 | > 10 µM |

Supply measured IC50 of `CC/C(=N\N=C(/S)NC)c1cccc(Br)c1` in your reply.
> 10 µM

Please give the documented IC50 of `CC/C(=N\NC(N)=O)c1ccc(Cl)c(Cl)c1`
> 10 µM

====

- assayTarget: Cruzipain (Trypanosoma cruzi)
- methodSummary: Inhibitory activity against Trypanosoma cruzi cathepsin L-like protease (cruzain) was determined using purified recombinant protein
pIC50: −log10 of the molar value.
valueType: pIC50

Previously resolved entries follow.
| compound | pIC50 |
| --- | --- |
| CC/C(=N\N=C(/S)Nc1ccccc1)c1cccc(Br)c1 | < 5.00 |
| NC(=O)N/N=C/c1ccc(-c2ccc(Cl)cc2)o1 | < 5.00 |
| CC/C(=N\NC(N)=O)c1cccc(Cl)c1 | < 5.00 |
| CC/C(=N\N=C(/S)NCc1ccco1)c1cccc(Br)c1 | < 5.00 |
| CC/C(=N\N=C(\N)S)c1ccccc1 | < 5.00 |
| CCC(NNC(N)=S)c1cccc(Br)c1 (stereo unspecified) | < 5.00 |
| CC/C(=N\NC(N)=O)c1cccc(C(F)(F)F)c1 | < 5.00 |
| CC/C(=N\N=C(\N)S)c1cccc(C(F)(F)F)c1 | 7.30 |

Let me know recorded pIC50 for `NC(=O)N/N=C/c1ccc(-c2cccc(Cl)c2)o1` , thanks.
< 5.00

Identify measured pIC50 associated with `N=C(S)N/N=C/c1ccccc1C(F)(F)F`
< 5.00

Name the recorded pIC50 of the item `C/C(=N\NC(N)=O)c1cccc(Br)c1` in your answer.
< 5.00

====

- assayTarget: Cruzipain (Trypanosoma cruzi)
- methodSummary: Inhibitory activity against Trypanosoma cruzi cathepsin L-like protease (cruzain) was determined using purified recombinant protein
pIC50: −log10 of the molar value.
valueType: pIC50

| molecule | endpointValue |
| --- | --- |
| NC(=S)N1CCC(c2cccc(Br)c2)=N1 | 6.70 |

[a] C/C(=N\N=C(\N)S)c1ccc(Cl)s1
[b] N=C(S)N/N=C/c1cc(C(F)(F)F)cc(C(F)(F)F)c1
[c] C/C(=N\N=C(\N)S)c1ccc(Br)s1
Rank the items in ascending order with respect to pIC50. Answer format: list of labels, ordered as asked.
c, a, b

[a] CCCCCCNC(=S)N1CCC(c2cccc(Br)c2)=N1
[b] N/C(S)=N/N=C/c1cccn1S(=O)(=O)c1ccccc1
Would you mind telling me which has the lower recorded pIC50 between a and b ? Please respond with the label that marks your chosen entry.
b
(b: 5.55, a: 5.85)

====

- assayTarget: Cruzipain (Trypanosoma cruzi)
- methodSummary: Inhibitory activity against Trypanosoma cruzi cathepsin L-like protease (cruzain) was determined using purified recombinant protein
valueType: IC50

| compound | IC50 |
| --- | --- |
| C/C(=N\N=C(\N)S)c1ccc(N2CCOCC2)cc1 | > 10000 nM |
| C/C(=N\N=C(\N)S)c1cc(C(F)(F)F)cc(C(F)(F)F)c1 | 60 nM |
| CN(C)c1ccc(/C=N/N=C(/N)S)c2ccccc12 | > 10000 nM |
| CC/C(=N\N=C(\N)S)c1ccc2cc(OC)ccc2c1 | > 10000 nM |
| CC/C(=N\N=C(\N)S)c1cccc(F)c1 | > 10000 nM |

Param request: IC50 | system Cruzipain (Trypanosoma cruzi) | item `N/C(S)=N/N=C/c1ccc(-c2ccc(Cl)cc2)o1`
300 nM

# return IC50 of `CC/N=C(\S)N/N=C(\CC)c1cccc(Br)c1` (system: Cruzipain (Trypanosoma cruzi))
> 10000 nM

Using Cruzipain (Trypanosoma cruzi) as the test system, report measured IC50 of `CC(C)/N=C(\S)N1CCC(c2cccc(Br)c2)=N1` .
> 10000 nM

Lab note: Cruzipain (Trypanosoma cruzi) assay, enter IC50 for `CC/C(=N\N=C(\N)S)c1ccc(OC)cc1` here
> 10000 nM

Using Cruzipain (Trypanosoma cruzi) as the test system, report measured IC50 of `N/C(S)=N/N=C/c1ccc(Cl)c(Cl)c1` .
460 nM

Fill: IC50 (Cruzipain (Trypanosoma cruzi)) for this compound `C/C(=N\NC(N)=O)c1cccc(Cl)c1`
> 10000 nM

Give IC50 for `NC(=O)N/N=C/c1ccc(-c2ccc(Br)cc2)o1` tested on Cruzipain (Trypanosoma cruzi).
> 10000 nM

Write down the reported IC50 (system: Cruzipain (Trypanosoma cruzi)) of `CC/C(=N\N=C(\N)S)c1ccc(Br)cc1`
> 10000 nM
